Assay: Half life in high fat diet fed Beagle dog at 20 mg/kg, po
Assay type: ADME, organism-based, Canis lupus familiaris
Parameters: dose 20 mg/kg, route oral
Settings: in vivo
READOUT_NAME: half-life (h)
// units = h; emit number, no label

Q) Need half-life of `O=C(O[C@@H]1COc2nc([N+](=O)[O-])cn2C1)N1CCN(c2ccc(OC(F)(F)F)cc2)CC1` , thanks.
A) 30

---

Experiment: Kinetic solubility of the compound in water at pH 7 by HPLC analysis
Format: physicochemical
Conditions: read-out: Kinetic_solubility
READOUT_NAME: log10 solubility kinetic (log10 of the value in µg/mL)
Log10 applied to solubility kinetic; unit prior to transform: µg/mL.

Q) Need log10 solubility kinetic of `O=C(CN[C@@H]1COc2nc([N+](=O)[O-])cn2C1)c1ccc(OC(F)(F)F)cc1` , thanks.
A) 1.32

Q) Need log10 solubility kinetic of `O=C(Nc1ccc(OC(F)(F)F)cc1)O[C@@H]1COc2nc([N+](=O)[O-])cn2C1` , thanks.
A) 0.73

Q) Need log10 solubility kinetic of `O=C(O[C@@H]1COc2nc([N+](=O)[O-])cn2C1)N1CCC(Oc2ccc(C(F)(F)F)nc2)CC1` , thanks.
A) 1.97

Q) Need log10 solubility kinetic of `CN(C(=O)c1ccc(OC(F)(F)F)cc1)[C@@H]1COc2nc([N+](=O)[O-])cn2C1` , thanks.
A) 1.23

Q) Need log10 solubility kinetic of `O=C(COc1ccc(-c2ccc(OC(F)(F)F)cc2)cc1)N[C@@H]1COc2nc([N+](=O)[O-])cn2C1` , thanks.
A) -0.02

Q) Need log10 solubility kinetic of `O=C(COc1ccc(OC(F)(F)F)cc1)N[C@@H]1COc2nc([N+](=O)[O-])cn2C1` , thanks.
A) 1.63

Q) Need log10 solubility kinetic of `O=C(NCc1ccc(OC(F)(F)F)cc1)N[C@@H]1COc2nc([N+](=O)[O-])cn2C1` , thanks.
A) 1.51

Q) Need log10 solubility kinetic of `O=C(NCc1ccc(OC(F)(F)F)cc1)O[C@@H]1COc2nc([N+](=O)[O-])cn2C1` , thanks.
A) 1.00

Q) Need log10 solubility kinetic of `CN(C(=O)O[C@@H]1COc2nc([N+](=O)[O-])cn2C1)c1ccc(OC(F)(F)F)cc1` , thanks.
A) 1.26
